# Target under test: T1, ZFP SBS#1157 (synthetic)
# T1 chain: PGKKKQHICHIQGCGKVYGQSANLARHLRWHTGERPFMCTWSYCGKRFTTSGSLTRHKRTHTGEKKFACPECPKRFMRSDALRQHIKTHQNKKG
# Method summary: EMSA
# Assay conditions: tags: MBP fusion
Endpoint label: pKd
A value of pKd is the negative decimal logarithm of a concentration given in moles per litre.

Memo: ATGGTTGAA (dsDNA) DNA 1: ATGGTTGAA DNA 2: TTCAACCAT , reported pKd: 9.05
